Tested on: MCF-7 (breast cancer) cell line
Assay: MTT cell viability assay, MCF-7
Type: cell-based, human
Conditions: Homo sapiens, MCF7, 72 h, MTT, 72 h, 1-100 µM, mean ± SD
READOUT_TYPE: pIC50
The scale used: pIC50 is minus the common logarithm of the concentration in molar units.

Given `Cc1cc(S(=O)(=O)N=c2[nH]c3ccc(Cl)cc3[nH]2)c(SCc2nc(N)nc(Nc3ccc(F)cc3)n2)cc1Cl` , state its recorded pIC50.
4.36

Given `Cc1cc(S(=O)(=O)N=c2[nH]c3ccc(F)cc3[nH]2)c(SCc2nc(N)nc(N3CCN(c4ccccc4)CC3)n2)cc1Cl` , state its recorded pIC50.
4.57

Given `Cc1cc(S(=O)(=O)N=c2[nH]c3ccccc3[nH]2)c(SCc2nc(N)nc(N3CCN(c4ccc(Cl)c(Cl)c4)CC3)n2)cc1Cl` , state its recorded pIC50.
4.34

Given `Cc1cc(S(=O)(=O)N=c2[nH]c3ccccc3[nH]2)c(SCc2nc(N)nc(N(C)c3ccccc3)n2)cc1Cl` , state its recorded pIC50.
4.49
